Assayed Target: human adenosine A2A receptor (Homo sapiens, UniProt P29274)
Construct: expressed in transfected cells; host or cells: CHO cells, semliki forest virus expression system; membrane preparation
Sequence (P29274 whole entry): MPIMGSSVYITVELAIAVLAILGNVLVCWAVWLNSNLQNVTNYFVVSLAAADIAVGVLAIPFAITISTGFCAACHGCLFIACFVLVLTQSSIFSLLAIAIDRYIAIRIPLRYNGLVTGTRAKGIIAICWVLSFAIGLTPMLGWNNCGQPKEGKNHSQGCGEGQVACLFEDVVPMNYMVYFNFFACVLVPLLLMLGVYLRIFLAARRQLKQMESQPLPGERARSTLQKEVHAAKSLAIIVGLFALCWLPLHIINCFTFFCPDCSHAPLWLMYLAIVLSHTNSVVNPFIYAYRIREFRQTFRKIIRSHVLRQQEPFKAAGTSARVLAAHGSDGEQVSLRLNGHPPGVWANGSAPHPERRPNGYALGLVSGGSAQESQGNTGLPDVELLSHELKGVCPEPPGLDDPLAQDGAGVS
Experiment: [3H]-SCH-58261 binding assay, human adenosine A2A receptor expressed in CHO cell membranes (SPA)
Assay Setup: [3H]-SCH-58261 (1 nM) displacement; recombinant receptor in CHO cell membranes; Ki by Cheng-Prussoff from IC50; read-out: hA2 (pKi) (converted)
Method: Human Adenosine A2A Receptor The human adenosine A2A receptor was recombinantly expressed in chinese hamster ovary (CHO) cells using the semliki forest virus expression system. […] Assay plates were incubated for 1 hour at room temperature before centrifugation and then bound ligand determined using a Packard Topcount scintillation counter. IC50 values were calculated using a non-linear curve fitting program and Ki values calculated using the Cheng-Prussoff equation.
Observation Type: Ki (nM)

[I] COc1ccc(N2CCOCC2)c2sc(NC(=O)c3ccc(CN(C)C(=O)C4CC4)cc3)nc12
[II] COc1ccc(N2CCOCC2)c2sc(NC(=O)c3ccc(CNC(=O)C4CC4)cc3)nc12
# returns the entry with the larger Ki; inputs I and II Write down the label of the entry you select.
II

[P] COc1ccc(N2CCOCC2)c2sc(NC(=O)c3ccc(CN(C)C(C)=O)cc3)nc12
[Q] COc1ccc(N2CCOCC2)c2sc(NC(=O)c3ccc(CN(C)C(=O)CN4CCCC4)cc3)nc12
[R] CCC(=O)N(C)Cc1ccc(C(=O)Nc2nc3c(OC)ccc(N4CCOCC4)c3s2)cc1
Give the ascending ranking of the items by reported Ki. List the labels according to the requested ordering.
R, P, Q

----------
Assayed Target: human adenosine A2A receptor (Homo sapiens)
Construct: expressed in transfected cells; host or cells: CHO cells, semliki forest virus expression system; membrane preparation
Experiment: [3H]-SCH-58261 binding assay, human adenosine A2A receptor expressed in CHO cell membranes (SPA)
Assay Setup: [3H]-SCH-58261 (1 nM) displacement; recombinant receptor in CHO cell membranes; Ki by Cheng-Prussoff from IC50; read-out: hA2 (pKi) (converted)
Observation Type: Ki (nM)

# annotated cases, reported Ki shown
{"Compound": "COCC(=O)NCc1ccc(C(=O)Nc2nc3c(OC)ccc(N4CCOCC4)c3s2)cc1 [Example 1]", "Value Units": "nM", "Result Number": 0.794}
{"Compound": "COc1ccc(N2CCOCC2)c2sc(NC(=O)c3ccc(CNC(C)=O)cc3)nc12 [Example 12]", "Value Units": "nM", "Result Number": 0.794}
{"Compound": "COCC(=O)N(C)Cc1ccc(C(=O)Nc2nc3c(OC)ccc(N4CCOCC4)c3s2)cc1 [Example 2]", "Value Units": "nM", "Result Number": 1.26}
{"Compound": "COc1ccc(N2CCOCC2)c2sc(NC(=O)c3ccc(CN(C)C(=O)CN(C)C)cc3)nc12 [Example 15]", "Value Units": "nM", "Result Number": 1.26}
{"Compound": "CCC(=O)N(CC)Cc1ccc(C(=O)Nc2nc3c(OC)ccc(N4CCOCC4)c3s2)cc1 [Example 14]", "Value Units": "nM", "Result Number": 1.26}
{"Compound": "COc1ccc(N2CCOCC2)c2sc(NC(=O)c3ccc(CN(C)C(=O)C4CCC4)cc3)nc12 [Example 5]", "Value Units": "nM", "Result Number": 0.794}

[I] CCC(=O)NCc1ccc(C(=O)Nc2nc3c(OC)ccc(N4CCOCC4)c3s2)cc1 [Example 7]
[II] COc1ccc(N2CCOCC2)c2sc(NC(=O)c3ccc(CNC(=O)C4CCC4)cc3)nc12 [Example 11]
# returns the entry with the larger Ki; inputs I and II Write down the label of the entry you select.
I
(I: 1 nM, II: 0.501 nM)
